Record form. Attribute: IC50. Fill in for each entry.
molecular target: human recombinant ROCK II (Homo sapiens, UniProt O75116); construct: recombinant human ROCK-II residues 11-552; His6 (N); test: Determination of Rho kinase inhibition (Caliper peptide phosphorylation assay); details: negative decadal logarithm of the IC50; ROCK II residues 11-552, fluorescein peptide substrate, 60 min at 32° C.; tested as salt or free base obtained in the examples
Sequence (O75116 11-552): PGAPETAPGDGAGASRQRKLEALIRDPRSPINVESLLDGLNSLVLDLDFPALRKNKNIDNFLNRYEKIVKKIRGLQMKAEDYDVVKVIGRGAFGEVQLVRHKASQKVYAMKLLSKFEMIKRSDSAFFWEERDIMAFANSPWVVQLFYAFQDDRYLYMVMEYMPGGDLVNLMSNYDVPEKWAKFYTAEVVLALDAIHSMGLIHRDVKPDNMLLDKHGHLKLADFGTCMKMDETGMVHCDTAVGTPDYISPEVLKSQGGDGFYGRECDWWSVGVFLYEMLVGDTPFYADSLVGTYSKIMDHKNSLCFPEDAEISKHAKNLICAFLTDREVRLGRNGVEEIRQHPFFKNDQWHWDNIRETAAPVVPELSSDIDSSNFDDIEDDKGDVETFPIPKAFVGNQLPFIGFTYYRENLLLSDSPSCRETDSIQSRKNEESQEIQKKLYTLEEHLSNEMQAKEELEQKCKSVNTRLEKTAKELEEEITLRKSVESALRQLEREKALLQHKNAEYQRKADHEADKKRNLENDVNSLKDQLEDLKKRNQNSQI
Counter-ions that a name gives are not always drawn.

Answered examples (4):
CCN(CC)[C@H]1CC[C@@H](Nc2ccc3c(=O)[nH]ccc3c2)CC1	1000 to 10000 nM
O=c1[nH]ccc2cc(N[C@H]3CC[C@@H](NC4CC4)CC3)ccc12	≤ 1000 nM
N[C@H]1CC[C@@H](Sc2cc3ccncc3cc2Br)CC1 [Compound 62, hydrochloride]	≤ 1000 nM
O=c1[nH]ccc2cc(N[C@H]3CC[C@@H](NCC4CCNCC4)CC3)ccc12	≤ 1000 nM

Asked: Which IC50 is reported with human recombinant ROCK II (Homo sapiens, UniProt O75116) for this entry: N[C@H]1CC[C@H](Nc2ccc3c(=O)[nH]ccc3c2)CC1 ?
Given back: ≤ 1000 nM

* * *

Record form. Attribute: pIC50. Fill in for each entry.
molecular target: human recombinant ROCK II (Homo sapiens, UniProt O75116); construct: recombinant human ROCK-II residues 11-552; His6 (N); test: Determination of Rho kinase inhibition (Caliper peptide phosphorylation assay); conditions: negative decadal logarithm of the IC50; ROCK II residues 11-552, fluorescein peptide substrate, 60 min at 32° C.; tested as salt or free base obtained in the examples
pIC50: −log10 of the molar value.

Could you tell me pIC50 for each of these molecules? They are listed below.
1. O=c1[nH]ccc2cc(N[C@H]3CC[C@@H](NCc4ccc(Cl)cc4)CC3)ccc12 [Compound 51]
2. N[C@H]1CC[C@@H](Sc2cc3ccncc3cc2Cl)CC1 [Compound 61]
3. CCN[C@H]1CC[C@@H](Nc2ccc3c(=O)[nH]ccc3c2)CC1 [Compound 45]
4. O=c1[nH]ccc2cc(N[C@H]3CC[C@@H](N(C4CC4)C4CC4)CC3)ccc12 [Compound 54]
5. N[C@H]1CC[C@@H](Sc2cc3cc[nH]c(=O)c3cc2Cl)CC1 [Compound 64]
6. O=c1[nH]ccc2cc(N[C@H]3CC[C@@H](NCc4cccc(Cl)c4)CC3)ccc12 [Compound 50]

Given back:
["5.00 to 6.00", "≥ 6.00", "≥ 6.00", "≥ 6.00", "≥ 6.00", "5.00 to 6.00"]

Could you tell me pIC50 for each of these molecules? They are listed below.
1. O=c1[nH]ccc2cc(N[C@H]3CC[C@@H](NCc4ccccc4)CC3)ccc12 [Compound 48]
2. N[C@H]1CCCC[C@H]1Nc1ccc2c(=O)[nH]ccc2c1 (relative stereo) [Compound 40]

Given back:
1: 5.00 to 6.00; 2: ≥ 6.00

* * *

biological target: human recombinant ROCK II (Homo sapiens, UniProt O75116); construct: recombinant human ROCK-II residues 11-552; His6 (N); purchased Upstate Ltd., Dundee, UK; test: Determination of Rho kinase inhibition (Caliper peptide phosphorylation assay); type: biochemical; conditions: negative decadal logarithm of the IC50; ROCK II residues 11-552, fluorescein peptide substrate, 60 min at 32° C.; tested as salt or free base obtained in the examples
Record form. Attribute: IC50. Fill in for each entry.

CCCN(CCC)[C@H]1CC[C@@H](Nc2ccc3c(=O)[nH]ccc3c2)CC1	1 to 10 µM
CC(C)N[C@H]1CC[C@@H](Nc2ccc3c(=O)[nH]ccc3c2)CC1	1 to 10 µM
CCCN[C@H]1CC[C@@H](Nc2ccc3c(=O)[nH]ccc3c2)CC1	≤ 1 µM

// moving on: another record for IC50
Asked: Find the recorded IC50 belonging to NC1CCCC(Nc2ccc3c(=O)[nH]ccc3c2)C1 (stereo not shown) and report it.
Given back: ≤ 1 µM
